Reference source: ChEMBL document CHEMBL2311525

molecular target: Cannabinoid receptor 1 (Rattus norvegicus); assay: Displacement of [3H]CP-55,940 from Sprague-Dawley rat brain CB1 receptor at 1 to 10000 nM by scintillation counting analysis
measuredEndpoint: inhibition (%)
Numeric answer only, unit % assumed.

Look over these answered cases.
>>> numericresult("CCCCCn1cc(C(=O)Nc2ccc(OC)cc2)c(=O)c2c(C)nn(C)c21")
46
>>> numericresult("Cc1nn(C)c2c1c(=O)c(C(=O)NC1CCCCC1)cn2CCCCC#N")
25
>>> numericresult("CCCCCn1cc(C(=O)NC2CCCCCC2)c(=O)c2c(-c3ccccc3)nn(C)c21")
1
>>> numericresult("Cc1ccc(Cn2cc(C(=O)NC3CCCCC3)c(=O)c3c(C)nn(C)c32)cc1")
38
>>> numericresult("CCOCCn1cc(C(=O)NC2CCCCC2)c(=O)c2c(C)nn(C)c21")
10

input: Return inhibition for the following molecule: `C=CCn1cc(C(=O)NC2CCCCC2)c(=O)c2c(C)nn(C)c21`
output: 27

input: Please supply the value of reported inhibition for the item `CCCCCn1cc(C(=O)NC2CCCCC2)c(=O)c2c(-c3ccccc3)nn(C)c21`
output: 18

input: Quote inhibition reported for `CCCCCn1cc(C(=O)Nc2ccc(F)cc2)c(=O)c2c(C)nn(C)c21` please.
output: 48

input: # return recorded inhibition for input `Cc1nn(C)c2c1c(=O)c(C(=O)NC1CCCCC1)cn2CCN1CCOCC1`
output: 13

input: Supply reported inhibition belonging to this molecule: `CCCCCn1cc(C(=O)NC2CCCCC2)c(=O)c2c(-c3ccc(Cl)cc3)nn(C)c21`
output: 15

###

Known Ratio Ki of a selection of molecules
organism: Homo sapiens; assay: Selectivity index, ratio of Ki for human recombinant CB1 receptor to Ki for human recombinant CB2 receptor

Some molecules with known Ratio Ki results, for comparison:
>>> result("CCCCCn1cc(C(=O)NC23CC4CC(CC(C4)C2)C3)c(=O)c2c(C)csc21")
12.5
>>> result("CCCCCn1cc(C(=O)NC2CCCCC2)c(=O)c2c(C)noc21")
17.7
>>> result("CCCCCn1cc(C(=O)NC23CC4CC(CC(C4)C2)C3)c(=O)c2c(C)noc21")
69.9
>>> result("CCCCCn1cc(C(=O)Nc2ccccc2)c(=O)c2c(C)nn(C)c21")
1.7
>>> result("CCCCCn1cc(C(=O)NC(C)CCC(C)C)c(=O)c2c(C)nn(C)c21 (stereo not given)")
8.5

input: Quickly give me recorded Ratio Ki for `CCCCCn1cc(C(=O)NC23CC4CC(CC(C4)C2)C3)c(=O)n2nc(-c3ccccc3)nc12`
output: 146

input: Kindly indicate its recorded Ratio Ki. Item: `CCCCCn1cc(C(=O)NC23CC4CC(CC(C4)C2)C3)c(=O)c2c(C(C)(C)C)nn(C)c21`
output: 10

input: Respond only with Ratio Ki recorded for `CCCCCn1cc(C(=O)NC2CCCCC2)c(=O)c2c(-c3ccc(Cl)cc3)nn(C)c21`
output: > 2.8

input: Give me measured Ratio Ki, please, for this molecule: `CCCCCn1cc(C(=O)NC2CCCCCC2)c(=O)c2cnn(C)c21`
output: 44

input: Hello, please tell me recorded Ratio Ki for this one: `CCCCCn1cc(C(=O)NC23CC4CC(CC(C4)C2)C3)c(=O)n2ncnc12`
output: 35.6
